method description: Efflux ratio of apparent permeability across apical to basolateral over basolateral to apical side in human Caco2 cells measured after 10 mins by LC-MS/MS analysis
test parameters: Caco-2
parameter measured: efflux ratio at 10 min

INSERT INTO assay_data (compound, readout_number) VALUES
  ('Fc1ccc(CNc2nc(N3CCN(C4CCCC4)CC3)c3ncn(CCCN4CCCC4)c3n2)cc1', 1.9);

A. CCN1CCN(c2nc(NCc3ccc(CN(C)C)cc3)nc3c2ncn3CCCN2CCCC2)CC1
B. CCN1CCN(CCCn2cnc3c(N4CCN(CC)CC4)ncnc32)CC1
[ask] Sort A and B by efflux ratio at 10 min descending and give the first. Kindly give the label for the entry you pick.
[reply] B
(B: 2.6, A: 0.7)

* * *

experimental target: Toll-like receptor 9 (Homo sapiens, UniProt Q9NR96)
Sequence (Q9NR96 whole entry): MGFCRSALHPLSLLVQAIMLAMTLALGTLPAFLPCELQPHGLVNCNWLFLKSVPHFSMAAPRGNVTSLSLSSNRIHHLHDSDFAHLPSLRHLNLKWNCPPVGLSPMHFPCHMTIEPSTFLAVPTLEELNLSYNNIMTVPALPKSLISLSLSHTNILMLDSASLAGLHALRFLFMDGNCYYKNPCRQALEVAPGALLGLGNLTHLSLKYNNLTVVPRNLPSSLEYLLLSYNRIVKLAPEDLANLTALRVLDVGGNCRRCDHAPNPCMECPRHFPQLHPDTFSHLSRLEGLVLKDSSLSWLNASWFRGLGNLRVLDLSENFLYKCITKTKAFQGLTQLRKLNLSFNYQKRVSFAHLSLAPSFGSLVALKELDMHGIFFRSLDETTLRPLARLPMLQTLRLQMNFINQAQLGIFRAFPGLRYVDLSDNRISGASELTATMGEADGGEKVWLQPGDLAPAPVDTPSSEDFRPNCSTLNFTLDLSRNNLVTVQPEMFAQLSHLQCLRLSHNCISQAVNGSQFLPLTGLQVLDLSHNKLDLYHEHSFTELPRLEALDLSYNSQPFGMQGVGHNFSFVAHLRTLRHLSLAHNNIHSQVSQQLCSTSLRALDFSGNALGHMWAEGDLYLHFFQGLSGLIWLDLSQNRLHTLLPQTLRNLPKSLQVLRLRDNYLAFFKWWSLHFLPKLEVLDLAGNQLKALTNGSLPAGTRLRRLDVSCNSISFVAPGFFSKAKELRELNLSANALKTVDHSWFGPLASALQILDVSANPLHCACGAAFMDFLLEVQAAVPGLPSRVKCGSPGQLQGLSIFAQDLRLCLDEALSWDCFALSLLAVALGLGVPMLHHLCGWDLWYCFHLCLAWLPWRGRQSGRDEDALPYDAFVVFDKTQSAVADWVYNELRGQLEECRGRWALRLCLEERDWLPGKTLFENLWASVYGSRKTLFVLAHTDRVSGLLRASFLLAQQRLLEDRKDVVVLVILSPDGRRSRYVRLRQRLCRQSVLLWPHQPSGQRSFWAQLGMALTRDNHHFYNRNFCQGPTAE
method description: Antagonist activity at human TLR9 expressed in […] cells assessed as inhibition of CpGB-induced NFkappaB activation measured after overnight incubation by SEAP-based spectrophotometry assay
parameter measured: IC50 (nM)

1. CCN1CCN(CCCn2cnc3c(N4CCN(CC)CC4)nc(NCc4ccc(OC)cc4)nc32)CC1
2. CCN1CCN(CCCn2cnc3c(N4CCN(C5CCCC5)CC4)nc(NC(=O)c4ccc(CN(C)C)cc4)nc32)CC1
[ask] Sort 1 and 2 by IC50 descending and give the first. Kindly give the label for the entry you pick.
[reply] 1

* * *

method description: Metabolic stability in human liver microsomes assessed as half life incubated for 60 mins by LC-MS/MS analysis
parameter measured: half-life at 1 h (h)

a. Fc1ccc(CNc2nc(N3CCN(C4CCCC4)CC3)c3ncn(CCCN4CCCC4)c3n2)cc1
b. CCN1CCN(c2nc(NCc3ccc(CN(C)C)cc3)nc3c2ncn3CCCN2CCCC2)CC1
[ask] Select the item whose half-life at 1 h value is smaller, choosing between a and b . Kindly give the label for the entry you pick.
[reply] a

* * *

experimental target: Toll-like receptor 9 (Homo sapiens)
method description: Antagonist activity at human TLR9 expressed in […] cells assessed as inhibition of CpGB-induced NFkappaB activation measured after overnight incubation by SEAP-based spectrophotometry assay
pIC50: −log10 of the molar value.
parameter measured: pIC50

1. CCN1CCN(c2nc(NCc3ccc(F)cc3)nc3c2ncn3CCCN2CCCC2)CC1
2. CCN1CCN(CCCn2cnc3c(N4CCN(C(=O)c5ccccc5)CC4)nc(NCc4ccc(N(CC)CC)cc4)nc32)CC1
3. Nc1nc(N2CCN(C3CCCC3)CC2)c2ncn(CCCN3CCCC3)c2n1
4. CCN1CCN(CCCn2cnc3c(N4CCN(CC)CC4)nc(N4CCCC4)nc32)CC1
[ask] Take the compounds listed above and rank them by pIC50; the top slot goes to the highest value. # output: labels, in the requested order
[reply] 1, 3, 4, 2

a. CCN1CCN(c2nc(NCc3ccc(CN(C)C)cc3)nc3c2ncn3CCCN2CCCC2)CC1
b. CCN1CCN(c2nc(N)nc3c2ncn3CCCN2CCCC2)CC1
[ask] Sort a and b by pIC50 descending and give the first. Kindly give the label for the entry you pick.
[reply] a
(a: 7.05, b: 6.72)

* * *

experimental target: Toll-like receptor 7 (Homo sapiens, UniProt Q9NYK1)
Sequence (Q9NYK1 whole entry): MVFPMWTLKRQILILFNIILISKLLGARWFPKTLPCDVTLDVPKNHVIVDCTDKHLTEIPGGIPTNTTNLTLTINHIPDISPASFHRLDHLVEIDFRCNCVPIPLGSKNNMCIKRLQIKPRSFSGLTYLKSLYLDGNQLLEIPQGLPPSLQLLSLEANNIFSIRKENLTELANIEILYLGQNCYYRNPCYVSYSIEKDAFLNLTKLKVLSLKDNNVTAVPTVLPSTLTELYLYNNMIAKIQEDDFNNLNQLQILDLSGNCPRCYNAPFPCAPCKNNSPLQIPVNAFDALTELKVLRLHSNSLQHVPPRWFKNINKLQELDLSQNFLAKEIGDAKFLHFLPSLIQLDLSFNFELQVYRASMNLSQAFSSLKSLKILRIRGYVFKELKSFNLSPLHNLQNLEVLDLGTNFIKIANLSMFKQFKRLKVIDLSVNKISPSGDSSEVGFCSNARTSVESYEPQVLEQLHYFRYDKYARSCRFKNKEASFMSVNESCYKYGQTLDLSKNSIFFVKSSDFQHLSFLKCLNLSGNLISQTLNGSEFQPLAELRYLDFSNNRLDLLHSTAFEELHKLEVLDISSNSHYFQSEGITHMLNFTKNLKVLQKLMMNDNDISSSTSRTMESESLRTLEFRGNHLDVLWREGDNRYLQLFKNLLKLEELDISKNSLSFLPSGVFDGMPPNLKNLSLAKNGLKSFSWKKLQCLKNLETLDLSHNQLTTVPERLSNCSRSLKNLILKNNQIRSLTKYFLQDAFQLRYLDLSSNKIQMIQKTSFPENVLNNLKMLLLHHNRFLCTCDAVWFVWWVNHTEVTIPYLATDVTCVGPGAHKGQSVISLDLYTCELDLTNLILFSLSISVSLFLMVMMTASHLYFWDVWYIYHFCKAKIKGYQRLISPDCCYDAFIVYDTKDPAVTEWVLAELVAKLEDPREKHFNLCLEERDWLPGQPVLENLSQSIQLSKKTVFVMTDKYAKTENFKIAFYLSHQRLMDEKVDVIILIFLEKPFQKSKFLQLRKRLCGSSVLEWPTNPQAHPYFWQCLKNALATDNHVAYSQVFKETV
method description: Antagonist activity at human TLR7 expressed in HEK-blue-HTLR7 cells assessed as inhibition of CL264-induced NFkappaB activation measured after overnight incubation by SEAP-based spectrophotometry assay
parameter measured: IC50 (µM)

Completed entries (count: 3):
INSERT INTO assay_data (compound, unit_annotation, readout_number) VALUES
  ('Fc1ccc(CNc2nc(N3CCN(C4CCCC4)CC3)c3ncn(CCCN4CCCC4)c3n2)cc1', 'µM', 13.6),
  ('CCN1CCN(c2nc(N)nc3c2ncn3CCCN2CCCC2)CC1', 'µM', 4.94),
  ('CCN1CCN(CCCn2cnc3c(N4CCN(CC)CC4)nc(NC(=O)c4ccccc4)nc32)CC1', 'µM', 7.74);

P. Nc1nc(N2CCN(C3CCCC3)CC2)c2ncn(CCCN3CCCC3)c2n1
Q. CCN1CCN(CCCn2cnc3c(N4CCN(C(=O)c5ccccc5)CC4)nc(NCc4ccc(N(CC)CC)cc4)nc32)CC1
[ask] Sort P and Q by IC50 descending and give the first. Kindly give the label for the entry you pick.
[reply] Q
(Q: 8.4 µM, P: 4.88 µM)

* * *

method description: physchem
test parameters: buffer, pH 7.4
Description: Aqueous solubility of compound at pH 7.4 measured after 18 hrs by UV-spectrometry
parameter measured: solubility at 18 h (µg/mL)

a. CCN1CCN(c2nc(NCc3ccc(CN(C)C)cc3)nc3c2ncn3CCCN2CCCC2)CC1
b. Fc1ccc(CNc2nc(N3CCN(C4CCCC4)CC3)c3ncn(CCCN4CCCC4)c3n2)cc1
[ask] Select the item whose solubility at 18 h value is smaller, choosing between a and b . Kindly give the label for the entry you pick.
[reply] b
(b: 28 µg/mL, a: 136 µg/mL)

Data origin: ChEMBL document CHEMBL5036327
